Hey, just so you know, these numbers are from the supplement of paper PMC6965134.

Field: TIMS collisional cross section. Provide a value for each of the molecules that follow.
- procedureText: TIMS collisional cross section (CCS, N2) of the lipid ion; higher = larger ion cross section
- appliedConditions: sample type: Liver; ionization mode: positive; one isomer drawn
Numbers only, in Å².

{"molecule": "CCCC/C=C\\CCCCCCCC(=O)OC[C@H](COC(=O)CCCCCCC/C=C\\C/C=C\\CCCCC)OC(=O)CCCCCCC/C=C\\CCCC [TG 14:1_14:1_18:2] (ion (formula + adduct): [C49H86O6+NH4] 1+)", "TIMS collisional cross section, Å²": 296.3}

Could you tell me TIMS collisional cross section for each of these molecules? They are listed below.
1. CCCCCCCC/C=C\CCCCCCCCCC(=O)O[C@H](COC(=O)CCCCCCC/C=C\CCCCCCCC)COC(=O)CCCCCCCCCCCCCCCCCCCCC [TG 18:1_20:1_22:0] (ion (formula + adduct): [C63H118O6+NH4] 1+)
2. CCCCCC/C=C\CCCCCCCC(=O)OC[C@@H](COC(=O)CCCCCCCCCCCC)OC(=O)CCCCCCCCCCCCCC [TG 13:0_15:0_16:1] (ion (formula + adduct): [C47H88O6+NH4] 1+)
3. CCCCC/C=C\C/C=C\C/C=C\C/C=C\CCCC(=O)O[C@H](COC(=O)CCCC/C=C\C/C=C\C/C=C\CCCCC)COP(=O)([O-])OCC[N+](C)(C)C [PC 18:3_20:4] (ion (formula + adduct): [C46H78NO8P+H] 1+)
4. CCCCCCCCCCCCCCCC(=O)OC[C@@H](COC(=O)CCCCCCCCCCCC)OC(=O)CCCCCCCCCCCCCC [TG 13:0_15:0_16:0] (ion (formula + adduct): [C47H90O6+NH4] 1+)
5. CCCCC/C=C\C/C=C\C/C=C\C/C=C\CCCC(=O)O[C@H](COC(=O)CCCCCCCCCCCCCCCCC)COP(=O)(O)OCCN [PE 18:0_20:4] (ion (formula + adduct): [C43H78NO8P+H] 1+)
6. CCCCC/C=C\C/C=C\C/C=C\C/C=C\CCCC(=O)O[C@H](COC(=O)CCCC/C=C\C/C=C\C/C=C\CCCCC)COP(=O)(O)OCCN [PE 18:3_20:4@] (ion (formula + adduct): [C43H72NO8P+H] 1+)
7. CCCCC/C=C\C/C=C\C/C=C\CCCCC(=O)O[C@H](COC(=O)CCCCCCCCCCCCCCC)COP(=O)([O-])OCC[N+](C)(C)C [PC 16:0_18:3] (ion (formula + adduct): [C42H78NO8P+H] 1+)
8. CC/C=C\C/C=C\C/C=C\C/C=C\C/C=C\CCCC(=O)O[C@H](COC(=O)CCCCCCC/C=C\C/C=C\CCCCC)COP(=O)(O)OCCN [PE 18:2@_20:5] (ion (formula + adduct): [C43H72NO8P+H] 1+)

A.
345.8
299.6
286.7
301.4
284.15
273.7
282
277.2

Could you tell me TIMS collisional cross section for each of these molecules? They are listed below.
1. CCCCC/C=C\C/C=C\C/C=C\C/C=C\CCCC(=O)O[C@H](COC(=O)CCCCCCCCC/C=C\CCCCCCCC)COP(=O)(O)OCCN [PE 20:1_20:4] (ion (formula + adduct): [C45H80NO8P+H] 1+)
2. CCCCC/C=C\C/C=C\C/C=C\C/C=C\CCCC(=O)OC[C@H](COP(=O)(O)OCCN)OC(=O)CCCCCCC/C=C\CCCCCCCC [PE 20:4_18:1] (ion (formula + adduct): [C43H76NO8P+H] 1+)

A.
287.2
280
